- assay remarks: The drug is tested on Z-021 corresponding to metagenome with ENA study accession number: PRJEB37062 and ENA sample accession number: ERS12561820 for biotransformation under anaerobic condition. The drug concentrations were measured over 9 timepoints collected between 0 and 24 hours of incubation by liquid-chromatography-coupled mass spectrometry (LC–MS); also: call rule not given here
- assay conditions: 2 µM
endpoint name: Bacterial Biotransformation

See these solved cases before continuing.
Cc1ccc(S(=O)(=O)NC(=O)NN2CC3CCCC3C2)cc1 (centres undefined) [GLICLAZIDE]; Compound NOT metabolized
COc1cc2nc(N(C)CCCNC(=O)C3CCCO3)nc(N)c2cc1OC (centres undefined); Compound NOT metabolized
Cc1ccc(-c2cc(C(F)(F)F)nn2-c2ccc(S(N)(=O)=O)cc2)cc1; Compound NOT metabolized
O=c1[nH]c2ccccc2n1C1CCN(CCCC(c2ccc(F)cc2)c2ccc(F)cc2)CC1 [PIMOZIDE]; Compound metabolized
CCOC(=O)[C@H](CCc1ccccc1)N[C@H]1CCc2ccccc2N(CC(=O)O)C1=O; Compound metabolized
NC12CC3CC(CC(C3)C1)C2; Compound NOT metabolized
CO[C@]12C[C@@H](COC(=O)c3cncc(Br)c3)CN(C)[C@@H]1Cc1cn(C)c3cccc2c13; Compound metabolized
CN1CCN(C(=O)O[C@H]2c3nccnc3C(=O)N2c2ccc(Cl)cn2)CC1; Compound NOT metabolized
CCc1nc(N)nc(N)c1-c1ccc(Cl)cc1; Compound NOT metabolized
CC(CN(C)C)CN1c2ccccc2CCc2ccccc21.O=C(O)/C=C\C(=O)O (centres undefined) [TRIMIPRAMINE MALEATE]; Compound NOT metabolized

What Bacterial Biotransformation value was documented for this compound, `CN(C)CCC=C1c2ccccc2C=Cc2ccccc21` ?
Compound metabolized

Quick one: `Cc1cc2c(cc1S(N)(=O)=O)S(=O)(=O)CCC2`
Compound NOT metabolized

Quick one: NS(=O)(=O)c1cc2c(cc1Cl)N=C(CSCc1ccccc1)NS2(=O)=O [BENZTHIAZIDE]
Compound metabolized

Quick one: `COC1=CC(=O)C[C@@H](C)[C@]12Oc1c(Cl)c(OC)cc(OC)c1C2=O`
Compound metabolized

* * *

- assay conditions: human gut metagenome, 24 h, 2 µM
endpoint name: Bacterial Biotransformation

CCCCCOC(=O)Nc1nc(=O)n([C@@H]2O[C@H](C)[C@@H](O)[C@H]2O)cc1F [CAPECITABINE]; Compound NOT metabolized
CCN(CC)CCNC(C(=O)OCCC(C)C)c1ccccc1.Cl.Cl (centres undefined); Compound NOT metabolized
CC[C@H](C)C(=O)O[C@H]1C[C@@H](C)C=C2C=C[C@H](C)[C@H](CC[C@@H]3C[C@@H](O)CC(=O)O3)[C@H]21 [LOVASTATIN]; Compound NOT metabolized

* * *

- assay conditions: human gut metagenome, 24 h, 2 µM
endpoint name: Bacterial Biotransformation

OC(Cn1cncn1)(Cn1cncn1)c1ccc(F)cc1F [FLUCONAZOLE]; Compound NOT metabolized
COC(=O)[C@H]1[C@H]2C[C@@H]3c4[nH]c5cc(OC)ccc5c4CCN3C[C@H]2C[C@@H](OC(=O)c2cc(OC)c(OC)c(OC)c2)[C@@H]1OC [RESERPINE]; Compound NOT metabolized
N#Cc1ccc(C(c2ccc(C#N)cc2)n2cncn2)cc1 [LETROZOLE]; Compound NOT metabolized

* * *

- assay remarks: The drug is tested on Z-020 corresponding to rabbit gut metagenome with ENA study accession number: PRJEB37062 and ENA sample accession number: ERS12561819 for biotransformation under anaerobic condition. The drug concentrations were measured over 9 timepoints collected between 0 and 24 hours of incubation by liquid-chromatography-coupled mass spectrometry (LC–MS)
- assay conditions: 2 µM
endpoint name: Bacterial Biotransformation

See these solved cases before continuing.
CC(C)c1c(C(=O)Nc2ccccc2)c(-c2ccccc2)c(-c2ccc(F)cc2)n1CC[C@@H](O)C[C@@H](O)CC(=O)O; Compound NOT metabolized
COc1ccc(CCN(C)CCCC(C#N)(c2ccc(OC)c(OC)c2)C(C)C)cc1OC (configuration not stated); Compound metabolized
CN1C(C(=O)Nc2ccccn2)=C(O)c2sccc2S1(=O)=O; Compound NOT metabolized
CC(=O)OCC(=O)[C@@]1(O)[C@@H](C)C[C@H]2[C@@H]3CCC4=CC(=O)C=C[C@]4(C)[C@@]3(F)[C@@H](O)C[C@@]21C [BETAMETHASONE ACETATE]; Compound metabolized

What Bacterial Biotransformation value was documented for this compound, `O=C1[C@H](CC[C@H](O)c2ccc(F)cc2)[C@@H](c2ccc(O)cc2)N1c1ccc(F)cc1` ?
Compound NOT metabolized

Quick one: `CCCc1nc(C(C)(C)O)c(C(=O)OCc2oc(=O)oc2C)n1Cc1ccc(-c2ccccc2-c2nnn[nH]2)cc1`
Compound metabolized

Quick one: `CCC(=O)NCC[C@@H]1CCc2ccc3c(c21)CCO3`
Compound metabolized

* * *

- assay conditions: human gut metagenome, 24 h, 2 µM
endpoint name: Bacterial Biotransformation

CC(C)NCC(O)COc1ccc(COCCOC(C)C)cc1.CC(C)NCC(O)COc1ccc(COCCOC(C)C)cc1.O=C(O)/C=C/C(=O)O (configuration not stated) [BISOPROLOL FUMARATE]; Compound metabolized
OC(CCN1CCCCC1)(c1ccccc1)C1CC2C=CC1C2 (configuration not stated); Compound NOT metabolized
COC(=O)C1=C(C)NC(C)=C(C(=O)OC(C)C)C1c1cccc2nonc12 (configuration not stated); Compound NOT metabolized
NC(=O)N1c2ccccc2CC(=O)c2ccccc21 [OXCARBAZEPINE]; Compound NOT metabolized
Cc1ccc(S(=O)(=O)NC(=O)NN2CC3CCCC3C2)cc1 (configuration not stated) [GLICLAZIDE]; Compound metabolized
O=C(CCCN1CCC(O)(c2ccc(Cl)cc2)CC1)c1ccc(F)cc1; Compound NOT metabolized
CCN(CC)CCOC(=O)C(Cc1cccc2ccccc12)CC1CCCO1.O=C(O)C(=O)O (configuration not stated) [NAFRONYL OXALATE]; Compound metabolized
O=c1[nH]c2ccccc2n1CCCN1CCC(n2c(=O)[nH]c3cc(Cl)ccc32)CC1; Compound NOT metabolized

Lab note: next molecule to report on.
What Bacterial Biotransformation value was documented for this molecule, `C=CCN1CC[C@]23c4c5ccc(O)c4O[C@H]2C(=O)CC[C@@]3(O)[C@H]1C5` ?
Compound NOT metabolized

* * *

- assay remarks: The drug is tested on WLS-039 corresponding to human gut metagenome with ENA study accession number: PRJEB37062 and ENA sample accession number: ERS12561746 for biotransformation under anaerobic condition. The drug concentrations were measured over 9 timepoints collected between 0 and 24 hours of incubation by liquid-chromatography-coupled mass spectrometry (LC–MS)
- assay conditions: 2 µM
endpoint name: Bacterial Biotransformation

O=C1[C@H](CC[C@H](O)c2ccc(F)cc2)[C@@H](c2ccc(O)cc2)N1c1ccc(F)cc1; Compound NOT metabolized
CCOC(=O)[C@H](CCc1ccccc1)N[C@@H](C)C(=O)N1[C@H](C(=O)O)C[C@@H]2CCC[C@@H]21; Compound metabolized
COc1ccc(CCN(C)CCCC(C#N)(c2ccc(OC)c(OC)c2)C(C)C)cc1OC (stereo unspecified); Compound metabolized
CCCCC1=NC2(CCCC2)C(=O)N1Cc1ccc(-c2ccccc2-c2nnn[nH]2)cc1; Compound metabolized
CC(C)c1nc(CN(C)C(=O)N[C@H](C(=O)N[C@@H](Cc2ccccc2)C[C@H](O)[C@H](Cc2ccccc2)NC(=O)OCc2cncs2)C(C)C)cs1; Compound metabolized
CN1CCc2c(c3ccccc3n2Cc2ccccc2)C1.CN1CCc2c(c3ccccc3n2Cc2ccccc2)C1.O=S(=O)(O)c1cccc2c(S(=O)(=O)O)cccc12; Compound metabolized
CNCCC(Oc1ccc(C(F)(F)F)cc1)c1ccccc1 (stereo unspecified); Compound NOT metabolized
CNC(=C[N+](=O)[O-])NCCSCc1csc(CN(C)C)n1; Compound NOT metabolized

What Bacterial Biotransformation value was documented for this molecule, `Cc1nc(-c2ccc(OCC(C)C)c(C#N)c2)sc1C(=O)O` ?
Compound metabolized

Quick one: C[C@@H](CO)NC(=O)[C@@H]1C=C2c3cccc4[nH]cc(c34)C[C@H]2N(C)C1.O=C(O)/C=C\C(=O)O [ERGONOVINE MALEATE]
Compound metabolized

Quick one: `C#C[C@]1(O)CC[C@H]2[C@@H]3CCC4=CC(=O)CC[C@@H]4[C@H]3CC[C@@]21CC`
Compound metabolized

Quick one: CCC1(c2ccc(N)cc2)CCC(=O)NC1=O (stereo unspecified) [AMINOGLUTETHIMIDE]
Compound NOT metabolized

Quick one: `CN1CCN(C(=O)O[C@H]2c3nccnc3C(=O)N2c2ccc(Cl)cn2)CC1`
Compound NOT metabolized

Quick one: `CCOc1ccc(NC(C)=O)cc1`
Compound NOT metabolized

Quick one: COCCc1ccc(OCC(O)CNC(C)C)cc1.COCCc1ccc(OCC(O)CNC(C)C)cc1.O=C(O)C(O)C(O)C(=O)O (stereo unspecified) [METOPROLOL TARTRATE]
Compound NOT metabolized

Quick one: CC(C)OC(=O)C(C)(C)Oc1ccc(C(=O)c2ccc(Cl)cc2)cc1 [FENOFIBRATE]
Compound NOT metabolized
